# protocol: chemical genetic growth profiling, strain panel (AID 1159580);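 further: tested at 20 µM; growth read once vehicle control cultures reached saturation at 30 °C; lower values mean less growth of the strain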
# conditions: S. cerevisiae deletion strains, growth OD, locus YJL129C, strain trk1
Screen size: about 5,500 compounds; about 2,000 (36%) were called active. Inconclusive results (about 18%) are left out. No stated cut-off is given here; in the data, active means normalized growth mostly below about 0.91 (no sharp cut-off); inconclusive means no clear call, values can overlap the other calls; inactive means mostly above about 0.92. Some of the results follow.
One label from this list, please: active, inactive

Known results for compounds:
>>> print(df.to_string())
                                   compound  assigned_category
0  C=C1CC2C(CCC3(C)C(=O)CCC23)C2(C)C=CC(=O)C=C12 (stereo unspecified)           inactive
1  O=C(/C=C/C(=O)Oc1ccccc1C(=O)O)Oc1ccccc1C(=O)O           inactive
2             COc1ccc2c(c1)[nH]c1c(C)nccc12           inactive
3                   Cc1nccc2c1[nH]c1ccccc12           inactive

### Prompt Lab log entry: CC(C)CCCC(C)[C@H]1CCC2C3CC[C@H]4CC(=O)CC[C@]4(C)C3CC[C@@]21C (stereo partly specified) — outcome as called in the assay?
### Response inactive

### Prompt How was Cn1cnc([N+](=O)[O-])c1Sc1ncnc2nc[nH]c12 classified in this test?
### Response inactive

### Prompt Given c1ccc2c(c1)[nH]c1cnccc12 , state the outcome it received in this test.
### Response inactive

### Prompt Please indicate how the test categorized COc1ccc(Cc2nccc3cc(OC)c(OC)cc23)cc1OC .
### Response inactive

### Prompt For this compound, state the assay outcome: C[C@]12CCC3C(CC[C@H]4CC(=O)CC[C@]34C)C1CCC2=O (stereo partly specified)
### Response active

### Prompt Hi, sorry to bother you, what did the test record for CCCc1nc(C(C)(C)O)c(C(=O)OCc2oc(=O)oc2C)n1Cc1ccc(-c2ccccc2-c2nn[nH]n2)cc1 ?
### Response inactive

### Prompt Hi team, can someone confirm the assay call for CCCCC(=O)N(Cc1ccc(-c2ccccc2-c2nn[nH]n2)cc1)[C@H](C(=O)O)C(C)C ?
### Response inactive

----------
# protocol: chemical genetic growth profiling, strain panel (AID 1159580);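 further: tested at 20 µM; growth read once vehicle control cultures reached saturation at 30 °C; lower values mean less growth of the strain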
# conditions: S. cerevisiae strains, growth OD, strain wild type
The whole screen tested about 5,500 compounds, of which about 2,000 (36%) were called active. Another 18% or so got no clear call; they are omitted. Cut-off read from the data, not from the text of the source: active = normalized growth mostly below about 0.91 (no sharp cut-off); inconclusive = no clear call, values can overlap the other calls; inactive = mostly above about 0.92. This is one part of the list.
Form entry, call: pick from YES (active), NO (inactive)

Past entries and their recorded results:
In [3]: df
Out[3]:
                                   molecule  assigned_category
0     COc1ccc(Cc2nccc3cc(OC)c(OC)cc23)cc1OC                 NO
1  CC(C)(C)c1cc(C(C)(C)C)n(-c2ccc(N=Cc3cc(Br)cc(Br)c3O)cc2)n1                YES
2  C[C@]12CCC3c4ccc(O)cc4CCC3C1CC[C@@H]2OC(=O)CCC1CCCC1 (stereo partly drawn)                 NO
3                  c1ccc2c(c1)[nH]c1cnccc12                 NO
4  COC(=O)c1csc2c(C(F)(F)F)cc(N3CCN(S(=O)(=O)c4ccc(C)cc4)CC3)nc12                 NO
5  Cc1cc(C)c(C(=O)NCCNc2ccc(C(F)(F)F)cc2[N+](=O)[O-])c(C)c1                 NO
6  Cc1oc(-c2ccccc2)cc1C(=O)N1CCN(c2ccc(C(F)(F)F)cn2)CC1                 NO
7  CCCCCc1ccc(S(=O)(=O)Nc2cccnc2Oc2ccc(Cl)cc2)cc1                 NO

### Prompt Which outcome was entered for the molecule CNC(=O)CSP(=S)(OC)OC in this test?
### Response NO

### Prompt Hi, do you know how CC(=O)OC1CCC2C3CCc4cc(O)ccc4C3CCC12C (stereo not drawn) came out in this test?
### Response NO

### Prompt So what was the verdict on C=C(C)c1cc2cc(C(C)=O)c(O)cc2o1 in this test?
### Response NO

### Prompt So what was the verdict on O=S(=O)(c1ccc(Cl)c(Cl)c1)N1CCN(c2ccc(C(F)(F)F)cn2)CC1 in this test?
### Response NO

### Prompt Which result was noted for this molecule in the test: COP(=S)(OC)SCn1nnc2ccccc2c1=O
### Response NO

### Prompt What is the recorded call for this molecule in the test? Cn1cnc([N+](=O)[O-])c1Sc1ncnc2nc[nH]c12
### Response NO

### Prompt # outcome recorded in this test, key = COc1ccccc1N1CCN(S(=O)(=O)c2ccc(C(F)(F)F)cc2)CC1
### Response NO

### Prompt Test call, this molecule: O=[N+]([O-])/N=C1/NCCN1Cc1ccc(Cl)cc1
### Response NO

### Prompt Could you kindly confirm the outcome this assay logged for CC(=O)N[C@@H](CC(=O)O)C(=O)O ?
### Response NO
